B1: LINE1-full (parent)
chain: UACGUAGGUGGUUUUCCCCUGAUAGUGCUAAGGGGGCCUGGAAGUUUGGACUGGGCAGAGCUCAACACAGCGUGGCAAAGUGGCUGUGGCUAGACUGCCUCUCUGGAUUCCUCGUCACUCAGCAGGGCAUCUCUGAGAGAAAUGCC

- Variants of: B1
- method description: self-cleavage, relative activity (ratio to wild type); higher = more cleavage; in vitro, sequencing; the parent is a self-cleaving ribozyme
Please enter 1 where self-cleavage is greater than or equal to 0.4, and 0 where it is lower.

ordered residues	answer label
UACGUAGGUGGUUUUCCCCUGAUAGUGCUAAGGGGGCCUGGAUGUUUGGACUGGGCAGAGCUCAGCACAGCGUGGCAAAGUGGCUGUGGCUAGACUGCCUCUCUGGAUUCCUCGUCACUCAGCAGGGCAUCUCUGAGAGAAAUGCC	0
CACGUAGGUGGUUUUCUCCUGAUAGUGCUAAGGGGGCCUGGAAGUUUGGACUGGGCAGAGCUCAACACAGCGUGGCAAAGUGGCUGUGGCUAGACUGCCUCUCUGGAUUCCUCGUCACUCAGCAGGGCAUCUCUGAGAGAAAUGCC	1
UACGUAGGUGGUUUUCCCCUGAUAGUGCUAAGGGGGCCUGGAAGUUUGGACUGGGCAGAGCUCAACACAGCGUGGCAAAGAGGCUGUGGCUAGACUGCCUCUCUGGAUUCCUCGUCACUCAGCAGUGCAUCUCUGAGAGAAAUGCC	1
UACGUAGGUGGUUUUCCCCUGAUAGUGCUAAGGGGGCCUGGAAGCUUGGACUGGGCAGAGCUCAACACAGCAUGGCAAAGUGGCUGUGGCUAGACUGCCUCUCUGGAUUCCUCGUCACUCAGCAGGGCAUCUCUGAGAGAAAUGCC	1
UACGUAGGUGGUUUUCCCCUGGUAGCGCUAAGGGGGCCUGGAAGUUUGGACUGGGCAGAGCUCAACACAGCGUGGCAAAGUGGCUGUGGCUAGACUGCCUCUCUGGAUUCCUCGUCACUCAGCAGGGCAUCUCUGAGAGAAAUGCC	1
UACGUAGGUGGUUUUCCCCUGAUAGUGCUAAGGGGGCCUGGAAGUUUGGACUGGGCAGUGCUCAACACAGCGUGGCAAAGUGGCUGUGGCUAGACUGCCUCUCUGGAUUCCUCGUCACUCAGCAGGGCAUCUCUGUGAGAAAUGCC	1
UACGUAGGUGGUUUUCCCCUGAUAGUGCUAAGGGGGCCUGGAAGUUUGGACUGGGCAGAGCCCAACACAGCUUGGCAAAGUGGCUGUGGCUAGACUGCCUCUCUGGAUUCCUCGUCACUCAGCAGGGCAUCUCUGAGAGAAAUGCC	0
UACGUAGGUGGAUUUCCCCUGAUAGUGCUAAGGGGGCCUGGAAGUUUGGACUGGGCAGAGCUCAACACGGCGUGGCAAAGUGGCUGUGGCUAGACUGCCUCUCUGGAUUCCUCGUCACUCAGCAGGGCAUCUCUGAGAGAAAUGCC	1
UACGUAGGUGGUUUUCCCCUGAUAGUGCUAAGGGGGCCUGGAAGUUUGGACUGGGCAGAGCUCAACACAGCUUGGCAAAGUGGCUGUGGCUAGACUGCCUCUCUGGAUUCCUCGUCACUCAGCAGGGCAUCUCUGAGGGAAAUGCC	1
UACGUAGAUGGUUUUCCCCUGAUAGUGCUAAGGGGGCCUGGAAGUUUGGACUGGGCAGAGCUCAACACAGCGUGGCAAAGUGGCUGUGGCUAGACUGCCUCUCUGGAUUCCUCGUCACUCAGCAGGGCAUCUCUGAGAGAAGUGCC	1
UACGUAGGUGGUUUUCCCCUGACAGUGCUAAGGGGGCCUGGAAGUUUGGACUGGGCAAAGCUCAACACAGCGUGGCAAAGUGGCUGUGGCUAGACUGCCUCUCUGGAUUCCUCGUCACUCAGCAGGGCAUCUCUGAGAGAAAUGCC	0
UACGUAGGUGGUUUUCCCCUGAUAGUACUAAGGGGGCCUGGAAGUUUGGACUGGGCAGAGCUCAACACAGCGUGGCAAAGUGGCUGUGGCUAGACUGCCUCUCUGGAUUCCUCGUCACUCAGCAGGGCACCUCUGAGAGAAAUGCC	1
UACGUAGGUGGUUUUCCCCUGAUAGUGCUAAGGGGGCCUGGAAGUUUGGGCUGGGCAGAGCUCAACACAGCGCGGCAAAGUGGCUGUGGCUAGACUGCCUCUCUGGAUUCCUCGUCACUCAGCAGGGCAUCUCUGAGAGAAAUGCC	1
UACGUAGGUGGUUUUCCCUUGAUAGUGCUAAGGGGGCCUGGAAGUUUGGACUGGGCAGAGCCCAACACAGCGUGGCAAAGUGGCUGUGGCUAGACUGCCUCUCUGGAUUCCUCGUCACUCAGCAGGGCAUCUCUGAGAGAAAUGCC	0
UACGUAGGUGGUUUUCCCCUGAUAGUGCUAAGGGGGCCUGGAAGUUUGGACUGGGCAGAGCUCAACACAGCGUGGCAAAGUGGCUGUGGCUAGGCUGCCUCUCUGGAUUCCUCGUCACUCAGCAGGGUAUCUCUGAGAGAAAUGCC	0
UACGUAGGUGGUUUUCCCCUGAUAGUGCUAAGGGGGCCUGGAAGUUUGGACUGGGCAGGGCUCAACACAGCGUGGCAAAGUGGCUGUGGCUAGACUGCCUCUCUGGAUUCCUCGUCACUCAGCAGGGCACCUCUGAGAGAAAUGCC	0
UACGUAGGUGGUUUUCCCCUGAUAGUGCUAUGGGGGCCUGGAAGUUUGGACUGGGCAGAGCUCAACACAGCGUGGCAAAGUGGCUGAGGCUAGACUGCCUCUCUGGAUUCCUCGUCACUCAGCAGGGCAUCUCUGAGAGAAAUGCC	0
UACGUAGGUGGUUUUCCCCUGAUAGUGCUAAGGGGGCCUGGAAGUUUGGACUGGGCAGAGCUCAACACAGCGUGGCAAAGUGGCUGUGGCUAGACUGCCUCUCUGGAUUCCUCGUCACACAGCAGGGCAUCUCUGAGAGAAGUGCC	1
UACGUAGGUGGUUUUCCCCUGAUAGUGCUAAGGGGGCCUGGAAGUUUGGACUGGGCAGAGCUCGACACAGCGUGGCAAAGUGGCUGUGGCUAGACUGCCUCUCUGGAUUCCUCGUCACUCAGCAGGGCAUCACUGAGAGAAAUGCC	0
UACGUAGGUGGUUUUCCCCUGAUAGUGCUAAGGGGGCCUGGAAGUUUGGACUGGGCAGAGCUCAACACAGCGUGGCAAAGUGGCCGUGGCUAGACUGCCUCUCUAGAUUCCUCGUCACUCAGCAGGGCAUCUCUGAGAGAAAUGCC	0
UACGUAGGUGGUUUUCCCCUGAUAGUGCUAAGGGGGCCUGGAAGUUUGGACUGGGCAGAGCUCAACACAGCGUGGCAAAGUGGCUGUGGCUAGACUGCCUCUCUGGAUUCCUCGACACUCACCAGGGCAUCUCUGAGAGAAAUGCC	1
UACGUAGGUGGUUUUCCCCUGAUAGUGCUAAGGGGGCCUGGAAGUUUGGACUGGGCAGAGCUCAACACAGCGUGGCAAAGUGGCCGUGGCUAGACUGCCUCUCUGGAAUCCUCGUCACUCAGCAGGGCAUCUCUGAGAGAAAUGCC	0
UACGUAGGUGGUUUUCCCCUGUUAGUGCUAAGGGGGCCUGGAAGUUUGGACUGGGCAGAGCUCAACACAGCGUGGCAAAGUGGCUGUGGCUUGACUGCCUCUCUGGAUUCCUCGUCACUCAGCAGGGCAUCUCUGAGAGAAAUGCC	1
UACGUAGGUGGUUUUCCCCUGAUAGUGCUAAGGGGGCCUGGAAGUUUGGACUGGGCAGAGCUCAUCACAGCGUGGCAAAGUGGCUGUGGCUAGACUGCCUCUCUGGAUUCCUCGUCACUCAGCAGGGCAUCUCUGAGAGAAGUGCC	0
UACGUAGGUGGUUUUCCCCUGAUAGUGCUAAGGGGGUCUGGAAGUUUGGACUGGGCAGAGCUCAACACAGCGUGGCAAAGUGGCUGUGGCUAGACUGCCUCUCCGGAUUCCUCGUCACUCAGCAGGGCAUCUCUGAGAGAAAUGCC	1
UACGUAGGUGGUUUUCCCCUGAUAGUGCUAAGGGGGCCUGGAAGUUUGGACUGGGCCGAGCUCAACACAGCGUGGCAAAGUGGCUGUGGCUAGACUGCCUCUCAGGAUUCCUCGUCACUCAGCAGGGCAUCUCUGAGAGAAAUGCC	0
UACGUAGGUGGUUUUCCCCUGAUAGUGCUAAGGGGGCCUGGAAGUUUGGACAGGGCAGAGCUCAACACAGCGUGGCAAACUGGCUGUGGCUAGACUGCCUCUCUGGAUUCCUCGUCACUCAGCAGGGCAUCUCUGAGAGAAAUGCC	1
UACAUAGGUGGUUUUCCCCUGAUAGUGCUAAGGGGGCCUGGAAGUUUGGACUGGGCAGAGCUCAACACAGCGUGGCAAAGUGGCUGUGGCUAGACUGCCUCUCUGGAUUCCUCGUCACUCAGCAGGGCAUCUCUGAGAGAAAUGUC	1
UACGUAGGUGGUUUUCCCCUGAUAGUGCUAAGGGGGCCUGGAAGUUUGGACUGGGCAGAGCUCAACGCAGCGUGGCAAAGUGGCUGUGGCUAGACUGCCUCUCUGGAUUCCUCGUCACUCAGCAGGGCUUCUCUGAGAGAAAUGCC	0
UACGUAGGUGGUUUUCCCCUGAUAGUGCUAAGGGGGCCUGGAAGUUUGGACUGGGCAGAGCUCAACACAGCGUGGCAAAGUGGCUGUGGCCAGACCGCCUCUCUGGAUUCCUCGUCACUCAGCAGGGCAUCUCUGAGAGAAAUGCC	0
UACGUAGGUGGUUUUCCCCUGAUAGUGCUAAGGGGGCCUGGAAGUUUGGACUGGGCAGAGCUCAACACUGCGUGGCAAAGUGGCUGUGACUAGACUGCCUCUCUGGAUUCCUCGUCACUCAGCAGGGCAUCUCUGAGAGAAAUGCC	0
UACGUAGGUGGUUUUCCCCUGAUAGUGCUAAGGGGGCCUGGAAGUUUGGACUGGGCAGAGCUCAACACAGCGUGGCAAAGUGGCUGUGGCUAGACUGCCUCUCUGGCUUCCUCGUCACUCAGCAGGGCAUCUCUGAGAGAAAAGCC	1
CACGUAGGUGGUUUUCCCCUGAUAGUGCUAAGGGGGCCUGGAAGUUUGGACUGGGCAGAGCUCAACACAGCGUGGCAAAGUGGCUGUGUCUAGACUGCCUCUCUGGAUUCCUCGUCACUCAGCAGGGCAUCUCUGAGAGAAAUGCC	0
UACGUAGGUGGUUUUCCCCUGAUAGUGCUAAGGGGGCCUGGAAGUUUGGACUGGGCAGAGCUCAACAUAGCGUGGCAAAGUGGCUGUGGCUAGACUGCCUCUCUGGAUUCCUCGUCACUCAGCAGGGCGUCUCUGAGAGAAAUGCC	0
UACGUAGGAGGUUUUCCCCUGAUAGUGCUAAGGGGGCCUGGAAGUUUGGACCGGGCAGAGCUCAACACAGCGUGGCAAAGUGGCUGUGGCUAGACUGCCUCUCUGGAUUCCUCGUCACUCAGCAGGGCAUCUCUGAGAGAAAUGCC	1
UACGUAGGUGGUUUUCCCCUGAUAGUGCUAAGGGGGCCUGGAAGUUUGGACUGGGCAGAGCUCAACACAGCGUGGCAUAGUGGCUGUGCCUAGACUGCCUCUCUGGAUUCCUCGUCACUCAGCAGGGCAUCUCUGAGAGAAAUGCC	0

Values were extracted from the RNAGym collection of RNA variant scans (doi:10.7554/elife.90254).
